Source: patent US20190309059A1

Test system: his-labeled human IL-13 (immunogen A) (human) (UniProt P35225)
Method summary: cell-based or functional assay
Assign TARC (pg/mL), A549 cells + IL-13 5 ng/mL + TNFα; antibody at 2.7 nM to each entry below.
Hey, just the number and the unit after it is fine.

Note TARC (pg/mL), A549 cells + IL-13 5 ng/mL + TNFα; antibody at 2.7 nM for the binder shown: 28A2E11 (lead antibody, mouse hybridoma) (antibody, V domains shown, Mouse monoclonal antibody purified from hybridoma supernatant on Protein G) VH: EVQLQQSGAELVKPGASVKLSCTASGFNIKDYYMHWVKQRTEQGLEWIGRIDPEDGETKYAPKFHDKATLTADTSSNTAYLQFSSLASEDTAVYYCTRYDYYGPFAYWGQGTLVTVSA VL: QAVVTQESVLTTSPGETVTLTCRSSTGAVTTSNYANWVQEKPDHLFTGLIGGTNNRAPGVPARFSGSLIGDKAALTITGAQTEDEAIYFCALWYINHFIFGSGTKVTVL
118 pg/mL

Determine its reported TARC (pg/mL), A549 cells + IL-13 5 ng/mL + TNFα; antibody at 2.7 nM: 70F10A10 (lead antibody, mouse hybridoma) (antibody, V domains shown) VH: QIQLQQSGAELARPGASVKLSCKASGYTFTSYGISWVKQRDGQGLEWIGEIYPRSGNTDYNEKFKGKATLTADKSSSTAYMELRSLTSEDSAVYFCSSFTTLVPTDYFDYWGQGTTLTVSS VL: DIMMSQSPSSLAVSVGEKVSMTCKSSQSLLYSSNQKNYLAWYQQKPGQSPKMLIYWASTRETGVPDRFTGSGSGTDFTLTISSVMAEDLAVYYCHQYFTYPRTFGDGTKLEVK
1140 pg/mL

For the binder 29D9H8 (lead antibody, mouse hybridoma) (antibody, V domains shown, Mouse monoclonal antibody purified from hybridoma supernatant on Protein G) VH: QVQLQQSGAELVRPGASVTLSCKASGYTFTDYEMHWVKQTPVHGLEWIGGIDPETGGTASNQKFKGKAILTADKSSSTAYMELRSLTSEDSAVYYCTSGDYFGGGPFAYWGQGTLVTVSA VL: DIKMTQSPSSMYASLGERVTITCKASQDINSYLSWFQQKPGKSPKTLIYRANRLVDGVPSRFSGSGSGQDYSLTISSLDYEDMGIYYCLQYDEFPYTFGGGTKLEIK , give its reported TARC (pg/mL), A549 cells + IL-13 5 ng/mL + TNFα; antibody at 2.7 nM.
146 pg/mL

Specify TARC (pg/mL), A549 cells + IL-13 5 ng/mL + TNFα; antibody at 2.7 nM for 35E2C3 (lead antibody, mouse hybridoma) (antibody, V domains shown, Mouse monoclonal antibody purified from hybridoma supernatant on Protein G) VH: EVQLQESGPGLAKPSQTLSLTCSVTGYSITSDYWNWIRKFPGNKLEYMGYISYNGNTYYNPSLKSQISITRDTSKNQLYLQLKSATTEDTATYYCARLAKWTWYFDIWGTGTTVTVSS VL: DIQMNQSPSSLSASLGDTITITCHASQNINVWLSWYQQKPGSLPKLLIYKASDLHTGVPSRFSGSGSGTGFTLTISSLQPEDIATYYCQQGQSYPYTFGGGTKLEIK and stop.
797 pg/mL
